Attribution: the supplement of paper PMC9170038

System: MS2 coat protein
Experiment: apparent KD of MS2 coat protein; designed switch direction (-1 OFF switch, 1 ON switch): 1; higher = weaker reporter binding
Conditions: Eterna round: R95; input ligand: FMN 200 uM
Recorded apparent KD of MS2 coat protein values for a group of sequences are listed next.
Answer format: numeric, nM implied, no suffix.

polymer sequence: UUAAGCCACGGGCAGGAUAUGUAUUAAAAUACAUGAGGAUCACCCAUGUGCAGGUGUAACACCUGACAGAAGGGCCAAUCGAGGC [Soteed - 6] (puzzle: Same State 2)
tested system: MS2 coat protein
property: apparent KD of MS2 coat protein
quantitative result: 36.6

polymer sequence: AGUCCAGCCUGAGCUGGACAAAAGCGUGUACAUGAGGAUCACCCAUGUCAUGUACAAGCUUUUUGCUCGUCUUAAUA [Zipper 49 - 6] (puzzle: Sensor for hsa-mir-208a)
tested system: MS2 coat protein
property: apparent KD of MS2 coat protein
quantitative result: 106

polymer sequence: UGUUAACAUGAGGAUCACCCAUGUCAAAUGAAUCGAGGAUAUGGUAAGUAAUAAGAUAAUCUAGAAGGCGAAGUUG [Altered State 1-23 - Jieux - Same State 1] (puzzle: Same State 1)
tested system: MS2 coat protein
property: apparent KD of MS2 coat protein
quantitative result: 42.6

polymer sequence: GCGGCGGCACGGCAGGAUAUGAUAUAACCUACAUGAGGAUCACCCAUGUCGGCGGGUUGCAAAAUUCAGAAGGGCCCUGUAGGCC [Inberere] (puzzle: Same State 2)
tested system: MS2 coat protein
property: apparent KD of MS2 coat protein
quantitative result: 21.8

Now turn to the next sequence.
CUACUACAUGAGGAUCACCCAUGUUGUAGUGAUGCAGGAUAUGUGUGACCAGAAGAUGAAACAGAAGGGCAAAGAA [JR_SS!_Sub002] (puzzle: Same State 1) has a reported apparent KD of MS2 coat protein of 13.5

====

Test system: MS2 coat protein
Assay: apparent KD of MS2 coat protein; designed switch direction (-1 OFF switch, 1 ON switch): -1; higher = weaker reporter binding
Details: input ligand: none
Lab note: anything with apparent KD of MS2 coat protein at or over 30 nM counts as 1; the rest go in 0.

Example results:
polymer sequence: AAUUUGUGAGGAUAUCCAAUAUAUGACAUGAGGAUCACCCAUGUUUCCACUCGUACCUCCGGAGAAGGCACUGCAA [Ex5 #38] (Eterna round: R97, puzzle: Exclusion 5)
category label: 0
--
polymer sequence: UGCAAGCUUUAAAGAUCCUACAUGAGGAUCACCCAUGUGCUCGUCUUAUAACGUACUGUGACGAAAGUCACGGUACG [JL TOV1 3.96] (Eterna round: R97, puzzle: Sensor, turn-off variant 1)
category label: 1
--
polymer sequence: CCGAUCAGUGUCAGGAUAUCUACAGGACUGCCUCGAGAGAAGGGACAUGAGGAUCACCCAUGUACCCGGGCAAG [BmEX4 B.2] (Eterna round: R97, puzzle: Brourd's mod of Exclusion 4)
category label: 0

Query block: Determine whether measured apparent KD of MS2 coat protein meets or exceeds 30 nM for CUCAUGUGAGGAUAUGAGUUAGGGCGAGAGCCCUAUGAAAAUUAGAAGGCACAUGAGGAUCACCCAUGUGAGAA [Rerige] (Eterna round: R97, puzzle: Exclusion 4)
Result block: 1

Query block: Determine whether measured apparent KD of MS2 coat protein meets or exceeds 30 nM for CUUGUUUAUGUAGGAUAUGCCUGGCGUGCCUUUGCAGAAGGACAUGAGGAUCACCCAUGUGGUAUGAGGCUUACCCUUGUCGCC [salish99_ExNG1_r04_121] (Eterna round: R96, puzzle: Exclusion NG 1)
Result block: 0

Query block: Determine whether measured apparent KD of MS2 coat protein meets or exceeds 30 nM for UCACGGGACUGAGGAUAUACAUCAACCAUGGUUGUAGAAGGCAGAAGGUUGGAUCAUAUACUAAACAUGAGGAUCACCCAUGUU [JR_ExcNG1_Sub030] (Eterna round: R96, puzzle: Exclusion NG 1)
Result block: 0

Query block: Determine whether measured apparent KD of MS2 coat protein meets or exceeds 30 nM for CAAAGUUGGUAAGGAUAUCCUACAUUAUUCUGACCCGUGCAAGCUACAUGAGGAUCACCCAUGUGGGAGAAGGUGCGUUAAAGU [Design 3] (Eterna round: R96, puzzle: Exclusion NG 2)
Result block: 0

Query block: Determine whether measured apparent KD of MS2 coat protein meets or exceeds 30 nM for UGUAUUAUAGGAUAUCACAACCUGGACAUGAGGAUCACCCAUGUGGUUGCAUGCUGUCGAUGAGAAGGAUAGGGCG [Eternabot (L1) Solution 43] (Eterna round: R97, puzzle: Exclusion 5)
Result block: 0
